Assay: Stability in liver microsomes, dog
Binary call on Trep Concentration 30 min with cut-off 0.3 µM: strictly below means 1 (yes), and equality or higher means 0 (no).

Say whether its Trep Concentration 30 min is strictly beneath 0.3 µM. Entry: CCCCC[C@H]1CC[C@@H]2[C@H]3Cc4cccc(OCC(=O)O)c4C[C@H]3C[C@H]2OC(=O)O1 [XXIV]
0 (no)

Say whether its Trep Concentration 30 min is strictly beneath 0.3 µM. Entry: CCCCCC(CCC1C(O)CC2Cc3c(cccc3OCC(=O)O)CC21)OCC(=O)O (stereo not shown) [LVII]
1 (yes)

Say whether its Trep Concentration 30 min is strictly beneath 0.3 µM. Entry: CCCCCC(CCC1C(O)CC2Cc3c(cccc3OCC(=O)O)CC21)OC(=O)CCC(=O)N1CCOCC1 (stereo not shown) [XXXIII]
1 (yes)

Say whether its Trep Concentration 30 min is strictly beneath 0.3 µM. Entry: CCCCCC(CCC1C(O)CC2Cc3c(cccc3OCC(=O)O)CC21)OC(=O)OCC (stereo not shown) [XVI]
0 (no)

Say whether its Trep Concentration 30 min is strictly beneath 0.3 µM. Entry: CCCCCC(CCC1C(O)CC2Cc3c(cccc3OCC(=O)O)CC21)OCCN1CCOCC1 (stereo not shown) [L]
1 (yes)

Say whether its Trep Concentration 30 min is strictly beneath 0.3 µM. Entry: CCCCCC(CCC1C(O)CC2Cc3c(cccc3OCC(=O)O)CC21)OC (stereo not shown) [XLV]
1 (yes)

Say whether its Trep Concentration 30 min is strictly beneath 0.3 µM. Entry: CCCCC[C@@H](CC[C@@H]1[C@H]2Cc3cccc(OCC(=O)O)c3C[C@H]2C[C@H]1O)OC(=O)[C@@H](N)C(C)C [XXIX]
1 (yes)

Say whether its Trep Concentration 30 min is strictly beneath 0.3 µM. Entry: CCCCCC(CCC1C(O)CC2Cc3c(cccc3OCC(=O)O)CC21)OP(=O)(O)O (stereo not shown) [VI]
0 (no)

Say whether its Trep Concentration 30 min is strictly beneath 0.3 µM. Entry: CCCCCC(CCC1C(O)CC2Cc3c(cccc3OCC(=O)O)CC21)OC(=O)CC (stereo not shown) [LV]
0 (no)

Say whether its Trep Concentration 30 min is strictly beneath 0.3 µM. Entry: CCCCCC(CCC1C(O)CC2Cc3c(cccc3OCC(=O)O)CC21)OC(=O)C(C)N (stereo not shown) [XXXI]
0 (no)

Say whether its Trep Concentration 30 min is strictly beneath 0.3 µM. Entry: CCCCCC(CCC1C(O)CC2Cc3c(cccc3OCC(=O)O)CC21)OC(=O)c1ccc(O)c(O)c1 (stereo not shown) [LXVI]
1 (yes)

Say whether its Trep Concentration 30 min is strictly beneath 0.3 µM. Entry: CCCCCC(CCC1C(O)CC2Cc3c(cccc3OCC(=O)O)CC21)OC(=O)NCC(=O)O (stereo not shown) [XXXVIII]
1 (yes)

Say whether its Trep Concentration 30 min is strictly beneath 0.3 µM. Entry: CCCCCC(O)CCC1C(OC(=O)CCC(=O)O)CC2Cc3c(cccc3OCC(=O)O)CC21 (stereo not shown) [XXII]
1 (yes)

Say whether its Trep Concentration 30 min is strictly beneath 0.3 µM. Entry: CCCCCC(CCC1C(O)CC2Cc3c(cccc3OCC(=O)O)CC21)OC(=O)c1cccc(O)c1 (stereo not shown) [LX]
1 (yes)

Say whether its Trep Concentration 30 min is strictly beneath 0.3 µM. Entry: CCCCCC(CCC1C(O)CC2Cc3c(cccc3OCC(=O)O)CC21)OC(=O)COc1ccc(O)cc1 (stereo not shown) [LIV]
0 (no)

Say whether its Trep Concentration 30 min is strictly beneath 0.3 µM. Entry: CCCCCC(CCC1C(O)CC2Cc3c(cccc3OCC(=O)O)CC21)OC(=O)c1ccccc1O (stereo not shown) [LXI]
1 (yes)

Say whether its Trep Concentration 30 min is strictly beneath 0.3 µM. Entry: CCCCCC(CCC1C(O)CC2Cc3c(cccc3OCC(=O)O)CC21)OC(=O)N1CCCCC1 (stereo not shown) [XIX]
1 (yes)

Say whether its Trep Concentration 30 min is strictly beneath 0.3 µM. Entry: CCCCCC(CCC1C(O)CC2Cc3c(cccc3OCC(=O)O)CC21)OC(=O)CN (stereo not shown) [XXX]
0 (no)

Say whether its Trep Concentration 30 min is strictly beneath 0.3 µM. Entry: CCCCCC(CCC1C(O)CC2Cc3c(cccc3OCC(=O)O)CC21)OC(=O)CO (stereo not shown) [XLIV]
0 (no)

Say whether its Trep Concentration 30 min is strictly beneath 0.3 µM. Entry: CCCCCC(CCC1C(O)CC2Cc3c(cccc3OCC(=O)O)CC21)OC(=O)C(C)(C)C (stereo not shown) [XLIX]
0 (no)

----------
Assay: Stability in liver microsomes, dog
quantity: Trep Concentration 10 min (µM)
// units = µM; emit number, no label

CCCCCC(CCC1C(O)CC2Cc3c(cccc3OCC(=O)O)CC21)OC(=O)OC(C)C (centres unmarked) has a reported Trep Concentration 10 min of 0.57

CCCCCC(CCC1C(O)CC2Cc3c(cccc3OCC(=O)O)CC21)OC(C)=O (centres unmarked) has a reported Trep Concentration 10 min of 0.917

CCCCCC(CCC1C(O)CC2Cc3c(cccc3OCC(=O)O)CC21)OC(=O)NCC(=O)O (centres unmarked) has a reported Trep Concentration 10 min of 0

CCCCCC(CCC1C(O)CC2Cc3c(cccc3OCC(=O)O)CC21)OC(=O)c1cccc(O)c1 (centres unmarked) has a reported Trep Concentration 10 min of 0.0283

CCCCCC(CCC1C(O)CC2Cc3c(cccc3OCC(=O)O)CC21)OC(=O)C(C)C (centres unmarked) has a reported Trep Concentration 10 min of 0.972

CCCCCC(CCC1C(O)CC2Cc3c(cccc3OCC(=O)O)CC21)OC(=O)c1ccccc1O (centres unmarked) has a reported Trep Concentration 10 min of 0.0115

CCCCCC(CCC1C(O)CC2Cc3c(cccc3OCC(=O)O)CC21)OC(=O)c1ccc(O)c(O)c1 (centres unmarked) has a reported Trep Concentration 10 min of 0

CCCCCC(CCC1C(O)CC2Cc3c(cccc3OCC(=O)O)CC21)OC(=O)C1CCCN1 (centres unmarked) has a reported Trep Concentration 10 min of 0.199

CCCCCC(CCC1C(O)CC2Cc3c(cccc3OCC(=O)O)CC21)OCCN1CCOCC1 (centres unmarked) has a reported Trep Concentration 10 min of 0.00333

CCCCCC(CCC1C(O)CC2Cc3c(cccc3OCC(=O)O)CC21)OC(=O)N1CCC(O)CC1 (centres unmarked) has a reported Trep Concentration 10 min of 0

CCCCCC(CCC1C(O)CC2Cc3c(cccc3OCC(=O)O)CC21)OC(=O)COc1ccc(O)cc1 (centres unmarked) has a reported Trep Concentration 10 min of 0.544

----------
Experiment: Stability in liver microsomes, human
Conditions: human
Each entry falls in a class defined on AUC; the bands are bucket 1: < 2 µmol·min/L; bucket 2: ≥ 2 µmol·min/L and < 10 µmol·min/L; bucket 3: ≥ 10 µmol·min/L

Please indicate the class for CCCCCC(CCC1C(O)CC2Cc3c(cccc3OCC(=O)O)CC21)OC(=O)c1ccc(OC(F)(F)F)cc1 (centres unmarked) based on its AUC.
bucket 3

Please indicate the class for CCCCCC(CCC1C(O)CC2Cc3c(cccc3OCC(=O)O)CC21)OC (centres unmarked) based on its AUC.
bucket 3

Please indicate the class for CCCCCC(CCC1C(O)CC2Cc3c(cccc3OCC(=O)O)CC21)OC(=O)N1CCCCC1 (centres unmarked) based on its AUC.
bucket 1

Please indicate the class for CCCCCC(CCC1C(O)CC2Cc3c(cccc3OCC(=O)O)CC21)OC(=O)CCN (centres unmarked) based on its AUC.
bucket 1

Please indicate the class for CCCCCC(CCC1C(O)CC2Cc3c(cccc3OCC(=O)O)CC21)OC(=O)c1cccc(O)c1 (centres unmarked) based on its AUC.
bucket 2

Please indicate the class for CCCCCC(CCC1C(O)CC2Cc3c(cccc3OCC(=O)O)CC21)OC(=O)C(N)CCCCN (centres unmarked) based on its AUC.
bucket 2

Please indicate the class for CCCCCC(CCC1C(O)CC2Cc3c(cccc3OCC(=O)O)CC21)OC(=O)c1ccc(C(F)(F)F)cc1 (centres unmarked) based on its AUC.
bucket 3

Please indicate the class for CCCCCC(CCC1C(O)CC2Cc3c(cccc3OCC(=O)O)CC21)OC(=O)C(C)(C)C (centres unmarked) based on its AUC.
bucket 2

Please indicate the class for CCCCCC(CCC1C(O)CC2Cc3c(cccc3OCC(=O)O)CC21)OC(=O)OCC(=O)O (centres unmarked) based on its AUC.
bucket 1

Please indicate the class for CCCCCC(CCC1C(O)CC2Cc3c(cccc3OCC(=O)O)CC21)OC(=O)COc1ccccc1 (centres unmarked) based on its AUC.
bucket 3

Please indicate the class for CCCCCC(CCC1C(O)CC2Cc3c(cccc3OCC(=O)O)CC21)OCCC (centres unmarked) based on its AUC.
bucket 2

----------
Assay: Stability in human subcutaneous skin homogenate
Decide using Trep Concentration 120 min: a value greater than or equal to 0.1 µM is rule met, a smaller one is rule not met.

// inclusive: Trep Concentration 120 min at least 0.1 µM? input: CCCCCC(CCC1C(O)CC2Cc3c(cccc3OCC(=O)O)CC21)OC(=O)C(C)N (stereo not shown) [XXXI]
rule met

// inclusive: Trep Concentration 120 min at least 0.1 µM? input: CCCCCC(CCC1C(O)CC2Cc3c(cccc3OCC(=O)O)CC21)OC(=O)CO (stereo not shown) [XLIV]
rule met

// inclusive: Trep Concentration 120 min at least 0.1 µM? input: CCCCCC(O)CCC1C(OC(=O)CCC(=O)O)CC2Cc3c(cccc3OCC(=O)O)CC21 (stereo not shown) [XXII]
rule not met

// inclusive: Trep Concentration 120 min at least 0.1 µM? input: CCCCCC(CCC1C(O)CC2Cc3c(cccc3OCC(=O)O)CC21)OC(=O)C(C)(C)C (stereo not shown) [XLIX]
rule not met

// inclusive: Trep Concentration 120 min at least 0.1 µM? input: CCCCCC(CCC1C(O)CC2Cc3c(cccc3OCC(=O)O)CC21)OC(=O)C1CCCN1 (stereo not shown) [XXXVI]
rule met

// inclusive: Trep Concentration 120 min at least 0.1 µM? input: CCCCCC(CCC1C(O)CC2Cc3c(cccc3OCC(=O)O)CC21)OC(=O)N1CCCCC1 (stereo not shown) [XIX]
rule not met

// inclusive: Trep Concentration 120 min at least 0.1 µM? input: CCCCCC(CCC1C(O)CC2Cc3c(cccc3OCC(=O)O)CC21)OC(=O)CN (stereo not shown) [XXX]
rule met
